Each record here notes measured IC50.
target-under-test: mOBP5 (Mus musculus, UniProt Q9D3H2)
Construct: composed of an N-terminal His6-tag, followed by mOBP5 (Ala17-Glu163); made in house; host or cells: E. coli M15 [pREP4]
Sequence (Q9D3H2 17-163): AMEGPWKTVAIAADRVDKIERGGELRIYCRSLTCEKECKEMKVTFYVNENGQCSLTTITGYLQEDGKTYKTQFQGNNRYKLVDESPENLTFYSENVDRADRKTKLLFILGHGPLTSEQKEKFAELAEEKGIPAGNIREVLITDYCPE
assay-notes: Competitive fluorescence binding assay (displacement of NPN from mOBP5)
condition-description: 2 μM mOBP5, 10 μM NPN, 20 °C; for very weak ligands an arbitrary value of 200 μM was assigned; read-out: IC50 (µM) Fluo: concentration of competitor ligand causing a decrease of NPN fluorescence of half-maximal intensity
measured-metric: IC50

> print(dat)
                                    compound                     target.under.test  meas.value
 1              CC(C)[C@@H]1CC[C@@H](C)CC1=O  mOBP5 (Mus musculus, UniProt Q9D3H2)      0.8 µM
 2    CC1CCC(C(C)C)C(O)C1 (centres unmarked)  mOBP5 (Mus musculus, UniProt Q9D3H2)      1.5 µM
 3  CC(C=O)Cc1ccc(C(C)(C)C)cc1 (centres unmarked)  mOBP5 (Mus musculus, UniProt Q9D3H2)      1.4 µM
 4      CC1=CCC2CC1C2(C)C (centres unmarked)  mOBP5 (Mus musculus, UniProt Q9D3H2)      0.9 µM
 5                     CC12CCC(CC1)C(C)(C)O2  mOBP5 (Mus musculus, UniProt Q9D3H2)       40 µM
 6                                  CCCCCCCO  mOBP5 (Mus musculus, UniProt Q9D3H2)      2.4 µM
 7  C=C(C)C1CC=C(C)C(=O)C1 (single isomer, unassigned; (-)) [(-)-carvone]  mOBP5 (Mus musculus, UniProt Q9D3H2)      1.1 µM
 8  C=C(C)[C@H]1CC=C(C)C(=O)C1 [(+)-carvone]  mOBP5 (Mus musculus, UniProt Q9D3H2)        1 µM
 9                                   CCCCCCO  mOBP5 (Mus musculus, UniProt Q9D3H2)       40 µM
10                       CC(C)=CCC/C(C)=C/CO  mOBP5 (Mus musculus, UniProt Q9D3H2)      0.7 µM
11                       Cc1ccc(C(C)C)c(O)c1  mOBP5 (Mus musculus, UniProt Q9D3H2)       40 µM
12                           COc1ccc(C=O)cc1  mOBP5 (Mus musculus, UniProt Q9D3H2)       40 µM
13                                CCCCCCCC=O  mOBP5 (Mus musculus, UniProt Q9D3H2)      1.3 µM
14      CCCCCCC1CCC(=O)O1 (centres unmarked)  mOBP5 (Mus musculus, UniProt Q9D3H2)      2.4 µM
15   CC(C)=CCCC(C)=CC=O (mixture of isomers)  mOBP5 (Mus musculus, UniProt Q9D3H2)      2.5 µM
16                          COc1nccnc1CC(C)C  mOBP5 (Mus musculus, UniProt Q9D3H2)      7.2 µM
17                            CCCCCCCCC(C)=O  mOBP5 (Mus musculus, UniProt Q9D3H2)      1.2 µM
18   CC12CCC(CC1=O)C2(C)C (centres unmarked)  mOBP5 (Mus musculus, UniProt Q9D3H2)     10.4 µM
19          CC(=O)OCCC(C)C [isoamyl acetate]  mOBP5 (Mus musculus, UniProt Q9D3H2)      2.5 µM
20    C=CC(C)(O)CCC=C(C)C (centres unmarked)  mOBP5 (Mus musculus, UniProt Q9D3H2)      1.1 µM
21                                 CCCCCCCCO  mOBP5 (Mus musculus, UniProt Q9D3H2)      1.1 µM
22               CC(=O)/C=C/C1=C(C)CCCC1(C)C  mOBP5 (Mus musculus, UniProt Q9D3H2)        3 µM
23              CCCC(=O)OCC [ethyl butyrate]  mOBP5 (Mus musculus, UniProt Q9D3H2)       40 µM
